- target-under-test: IDO1 (Homo sapiens, UniProt P14902)
- Sequence (P14902 whole entry): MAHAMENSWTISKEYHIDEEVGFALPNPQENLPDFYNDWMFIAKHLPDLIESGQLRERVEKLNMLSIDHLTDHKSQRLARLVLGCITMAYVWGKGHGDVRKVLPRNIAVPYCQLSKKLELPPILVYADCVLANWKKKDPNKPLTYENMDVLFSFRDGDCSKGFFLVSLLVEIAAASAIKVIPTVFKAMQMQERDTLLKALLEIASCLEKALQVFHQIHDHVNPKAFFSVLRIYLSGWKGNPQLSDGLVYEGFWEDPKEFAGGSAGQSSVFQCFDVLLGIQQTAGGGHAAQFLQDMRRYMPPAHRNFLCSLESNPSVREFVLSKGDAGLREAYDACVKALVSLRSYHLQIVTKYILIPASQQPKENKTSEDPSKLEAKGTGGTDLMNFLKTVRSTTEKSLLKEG
- test-method-notes: IDO1 cellular activity using Hela cells (IFN-gamma induced IDO expression, kynurenine absorbance at 480 nm)
- Format: cell-based
- test-context: IDO induced with interferon gamma 50 ng/ml, 24 h compound incubation, read-out: Inhibitory Activity (IC50)
Exercise: for every item that follows, state its recorded IC50.

# compound, IC50
data = [
    ("C[C@H](C[C@H]1CC[C@@H](c2ccnc3ccc(F)cc32)CC1)Nc1nc2ncc(Cl)cc2o1 [Example 31]", "0.0175 µM"),
    ("C[C@H](C[C@H]1CC[C@@H](c2ccnc3ccc(F)cc32)CC1)Nc1nc2ccccc2o1 [Example 24]", "0.017 µM"),
]

Below: the item to evaluate.
[Q] // returns reported IC50 for input C[C@H](C[C@H]1CC[C@@H](c2ccnc3ccc(F)cc32)CC1)Nc1nc2cccnc2o1 [Example 30]
[A] 0.0235 µM
